# test_description: Solubility of FF-MAS in water, ethanol and ethanol/water
# Assay type: physicochemical
# test_settings: ethanol, organic solvent or mixture; read-out: solubility in ethanol

{"structure_smiles_string": "CC(C)=CCC[C@@H](C)[C@H]1CC=C2C3=C(CC[C@@]21C)[C@@]1(C)CC[C@H](O)C(C)(C)[C@@H]1CC3", "solubility": "~4000 µg/mL"}

----------
# test_description: Solubility of FF-MAS in water, ethanol and ethanol/water
# Type: physicochemical
# test_settings: ethanol/water (1:2.5), aqueous with cosolvent or surfactant or cyclodextrin; ethanol and water (1:2.5), no additive; preliminary investigations; read-out: highest solubility in a mixture of ethanol and water (1:2.5)

{"structure_smiles_string": "CC(C)=CCC[C@@H](C)[C@H]1CC=C2C3=C(CC[C@@]21C)[C@@]1(C)CC[C@H](O)C(C)(C)[C@@H]1CC3", "solubility": "~400 µg/mL"}

Values compiled from patent US6844313B1.
